- Test system: 485176-168-R4-J1-PDC complex spheroid growth;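 note: spheroids exposed to compounds for seven days before readout; luminescence viability expressed relative to DMSO vehicle wells set as 100%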
- Test protocol: Anticancer human tumor 485176-168-R4-J1-PDC patient-derived pancreatic adenocarcinoma cell line growth inhibition [RAS]
- Condition: second compound 0.00316 µM; first compound 1 µM; active compounds read low

Molecule	viability, T/C / %
O=C(c1ccc(F)c(F)c1Nc1ccc(I)cc1F)N1CC(O)([C@@H]2CCCCN2)C1 + C=CC(=O)N1CCN(c2nc(OCC3CCCN3C)nc3c(F)c(-c4nc(N)cc(C)c4C(F)(F)F)c(Cl)cc23)C(C)C1	33
CCC(CC)c1cc(NC2CCC(N)C2)n2nccc2n1 (stereo not drawn) + C=CC(=O)N1CCN(c2nc(OCC3CCCN3C)nc3c(F)c(-c4nc(N)cc(C)c4C(F)(F)F)c(Cl)cc23)C(C)C1	78.5
Cc1nc(N2CCC3(CC2)COC(C)C3N)c(CO)nc1Sc1ccnc(N)c1Cl (stereo not drawn) + C=CC(=O)N1CCN(c2nc(OCC3CCCN3C)nc3c(F)c(-c4nc(N)cc(C)c4C(F)(F)F)c(Cl)cc23)C(C)C1	71.3
